Provenance of the data: ChEMBL document CHEMBL5291721

Reported AC50 values for the following molecules.
System: D(4) dopamine receptor (Homo sapiens); further: assay procedure not described here
Sequence (P21917 whole entry): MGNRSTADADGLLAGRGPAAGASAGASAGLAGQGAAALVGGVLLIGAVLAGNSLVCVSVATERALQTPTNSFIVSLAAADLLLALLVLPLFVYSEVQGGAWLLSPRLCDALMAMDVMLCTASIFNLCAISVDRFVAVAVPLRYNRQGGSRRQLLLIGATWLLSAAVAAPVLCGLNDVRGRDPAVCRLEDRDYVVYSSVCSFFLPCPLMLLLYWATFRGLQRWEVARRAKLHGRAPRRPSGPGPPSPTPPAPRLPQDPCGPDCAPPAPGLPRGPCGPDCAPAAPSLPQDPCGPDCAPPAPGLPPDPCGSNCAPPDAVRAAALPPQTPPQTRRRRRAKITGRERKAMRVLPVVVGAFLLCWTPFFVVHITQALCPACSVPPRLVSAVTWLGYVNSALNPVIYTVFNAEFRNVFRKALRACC

{"Molecule": "C#C[C@]1(O)CC[C@H]2[C@@H]3CCc4cc(O)ccc4[C@H]3CC[C@@]21C", "AC50": "> 10 µM"}
{"Molecule": "C[C@H]1O[C@H](O[C@H]2[C@H](O)[C@@H](O)[C@@H](O[C@H]3[C@H](O)[C@@H](O)C(O)O[C@@H]3CO)O[C@@H]2CO)[C@H](O)[C@@H](O)[C@@H]1N[C@H]1C=C(CO)[C@@H](O)[C@H](O)[C@H]1O (some centres undefined)", "AC50": "> 10 µM"}
{"Molecule": "Cc1cc(-c2ccccc2)nnc1NCCN1CCOCC1", "AC50": "> 10 µM"}
{"Molecule": "CN(C)C(=O)OC1N=C(c2ccccc2)c2cc(Cl)ccc2N(C)C1=O (centres undefined)", "AC50": "> 10 µM"}
{"Molecule": "CCOC(=O)[C@H](CCc1ccccc1)N[C@@H](C)C(=O)N1CCC[C@H]1C(=O)O", "AC50": "> 10 µM"}

Read the next record carefully.
Qu. State its AC50 on D(4) dopamine receptor (Homo sapiens): CCc1nn(CCCN2CCN(c3cccc(Cl)c3)CC2)c(=O)n1CCOc1ccccc1
Ans. 0.271 µM
